- System: 565232-114-T-J1-PDC complex spheroid viability
- protocol description: Anticancer human tumor 565232-114-T-J1-PDC patient-derived bladder carcinoma cell line growth inhibition [CLK]
- assay setup: second compound 0.0316 µM; first compound 0.01 µM; stronger effect = lower value
Reported viability, T/C by item:
Write the value in % as a bare number.

Some solved entries appear below for comparison.
>>> obs_value("COc1c(OCCCN2CCOCC2)ccc2c3n(c(=NC(=O)c4cnc(N)nc4)nc12)CCN3 + CNC(=O)c1ccc(Nc2nc(OC3CCCC3)c3c(-c4ccc5nc(C)oc5c4)c[nH]c3n2)c(OC)c1")
81.5
>>> obs_value("CCN1CCN(Cc2ccc(Nc3ncc(F)c(-c4cc(F)c5nc(C)n(C(C)C)c5c4)n3)nc2)CC1 + CN1CCN(c2cc(C(=O)Nc3cc4cc(-c5cnn(C)c5)ccc4cn3)ccn2)CC1")
82.1
>>> obs_value("CCN1CCN(Cc2ccc(Nc3ncc(F)c(-c4cc(F)c5nc(C)n(C(C)C)c5c4)n3)nc2)CC1 + CNC(=O)c1ccc(Nc2nc(OC3CCCC3)c3c(-c4ccc5nc(C)oc5c4)c[nH]c3n2)c(OC)c1")
81.1

Query compound follows.
Prompt: # get_value(readout= viability, T/C, system= 565232-114-T-J1-PDC complex spheroid viability) for Cn1ncnc1[C@H]1c2n[nH]c(=O)c3cc(F)cc(c23)N[C@@H]1c1ccc(F)cc1 + CN1CCN(c2cc(C(=O)Nc3cc4cc(-c5cnn(C)c5)ccc4cn3)ccn2)CC1
Response: 82.1

====

- Test system: 565232-114-T-J1-PDC complex spheroid viability
- protocol description: Anticancer human tumor 565232-114-T-J1-PDC cell line growth inhibition [CLK];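 note: spheroids exposed to compounds for 7 days before readout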
- assay setup: curve of first compound; second compound 0.1 µM
reported endpoint: IC50

>>> obs_value("COC1C=CCC(C)C(C)S(=O)(=O)NC(=O)c2ccc3c(c2)N(CC2CCC21)CC1(CCCc2cc(Cl)ccc21)CO3 (centres undefined) + CNC(=O)c1ccc(Nc2nc(OC3CCCC3)c3c(-c4ccc5nc(C)oc5c4)c[nH]c3n2)c(OC)c1")
"< 31.6 nM"

Prompt: Item under review: CC(CO)NC(=O)c1cc(-c2ccc(Cl)cc2)nn(-c2cnn(C)c2)c1=O (centres undefined) + CN1CCN(c2cc(C(=O)Nc3cc4cc(-c5cnn(C)c5)ccc4cn3)ccn2)CC1 . Reported IC50?
Response: > 10000 nM

Prompt: Let us now turn to CC(=O)O[C@H]1C(=O)[C@@]2(C)[C@H]([C@H](OC(=O)c3ccccc3)[C@]3(O)C[C@H](OC(=O)[C@H](O)[C@@H](NC(=O)c4ccccc4)c4ccccc4)C(C)=C1C3(C)C)[C@]1(OC(C)=O)CO[C@@H]1C[C@@H]2O + CN1CCN(c2cc(C(=O)Nc3cc4cc(-c5cnn(C)c5)ccc4cn3)ccn2)CC1
Response: < 31.6 nM

Prompt: Let us now turn to CCc1c2c(nc3ccc(O)cc13)-c1cc3c(c(=O)n1C2)COC(=O)[C@]3(O)CC + CNC(=O)c1ccc(Nc2nc(OC3CCCC3)c3c(-c4ccc5nc(C)oc5c4)c[nH]c3n2)c(OC)c1
Response: < 3.16 nM

====

- System: 565232-114-T-J1-PDC complex spheroid viability
- protocol description: Anticancer human tumor 565232-114-T-J1-PDC cell line growth inhibition [CLK]; active = viability on the fitted dose curve at most 10% of control; inactive = the rest;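 note: spheroids exposed to compounds for 7 days before readout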
- assay setup: second compound 10 µM; first compound 0.3 µM
Output constraint: value belongs to active, inactive

Examples from the recorded data:
>>> cat("NC(=O)C(=Cn1cnc(-c2cc(C(F)(F)F)cc(C(F)(F)F)c2)n1)c1cncnc1 + CN1CCN(c2cc(C(=O)Nc3cc4cc(-c5cnn(C)c5)ccc4cn3)ccn2)CC1")
"active"
>>> cat("CC(C)CC(NC(=O)C(Cc1ccccc1)NC(=O)c1cnccn1)B(O)O (stereo not drawn) + CNC(=O)c1ccc(Nc2nc(OC3CCCC3)c3c(-c4ccc5nc(C)oc5c4)c[nH]c3n2)c(OC)c1")
"active"

Now look at this one.
Prompt: Please share the test call associated with C=CC(=O)Nc1cc(Nc2nccc(-c3cn(C)c4ccccc34)n2)c(OC)cc1N(C)CCN(C)C + CNC(=O)c1ccc(Nc2nc(OC3CCCC3)c3c(-c4ccc5nc(C)oc5c4)c[nH]c3n2)c(OC)c1 .
Response: inactive
